- system_tested: SARS-CoV-2 RBD (residues 331-550 of spike from BetaCoV/Wuhan-Hu-1/2019, accession number MN908947) (SARS-CoV-2 Wuhan-Hu-1, UniProt P0DTC2 331-550)
- assay_summary: BLI
assay_endpoint: Kd (nM)
Field: numeric (nM). Do not append units.

// fetch Kd given entry S2X259 variant antibody, VH SEQ ID NO 460 / VL SEQ ID NO 445 (antibody, V domains shown) VH: QVQLVQSGAEVKKPGSSVKVSCKASGGIFNTYTISWVRQAPGQGLEWMGRIILISGIANYAQKIQGRVTITADKSTSTAYMELTSLRSDDTAVYYCARGFNGNYYGWGDDDAFDIWGQGTLVTVSS VL: QTVLTQPPSVSGAPGQRVTISCTGSNSNIGAGYDVHWYQQLPGTAPKLLIVGNSNRPSGVPDRFSGSKSGTSASLAITGLQAEDEADYYCQSYDSSLSGPNWVFGGGTKLTVL
0.298
